# test_system: human eIF4E protein (Homo sapiens)
# Sequence (P06730 whole entry): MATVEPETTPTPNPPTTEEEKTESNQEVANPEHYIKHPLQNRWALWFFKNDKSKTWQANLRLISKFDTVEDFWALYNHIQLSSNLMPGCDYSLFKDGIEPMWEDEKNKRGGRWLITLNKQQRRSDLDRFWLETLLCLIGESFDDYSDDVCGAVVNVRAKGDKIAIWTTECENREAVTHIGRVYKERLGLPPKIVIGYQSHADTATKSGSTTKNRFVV
observation_type: IC50

- Cc1cc(-c2cc(Cl)ccc2OCCn2c(C)nc3c(c2=O)C[C@@H](N2CCCC[C@@H]2C)CC3)c2scc(C(=O)O)c2n1 (single isomer, unassigned) [Compound 409]: < 100 nM

Indicate its recorded IC50; the molecule in question is Cc1cc(-c2cc(Cl)ccc2OCCn2c(C)nc3c(c2=O)C[C@@H](N2C[C@H]4CCC(F)(F)[C@H]4C2)CC3)c2scc(C(=O)O)c2n1 (single isomer, unassigned) [Compound 168] < 100 nM

Indicate its recorded IC50; the molecule in question is Cc1cc(-c2cc(Cl)ccc2OCCn2c(C)nc3c(c2=O)C[C@@H](N2CCC(c4cnn(C)c4)CC2)CC3)c2scc(C(=O)O)c2n1 (single isomer, unassigned) [Compound 427] < 100 nM

Indicate its recorded IC50; the molecule in question is Cc1cc(-c2cc(Cl)ccc2OCCn2c(C)nc3c(c2=O)CC(N(C)C)CC3)c2scc(C(=O)O)c2n1 (single isomer, unassigned) [Compound 13] < 100 nM

Indicate its recorded IC50; the molecule in question is Cc1cc(-c2ccc(Cl)cc2OCCn2c(C)nc3c(c2=O)C[C@@H](N(C)[C@H]2C[C@@](C)(O)C2)CC3)c2scc(C(=O)O)c2n1 (single isomer, unassigned) [Compound 228] < 100 nM

Indicate its recorded IC50; the molecule in question is Cc1nc2c(c(=O)n1CC#Cc1ccc(Cl)cc1-c1ccnc3c(C(=O)O)csc13)CC(N(C)C)CC2 (single isomer, unassigned) [Compound 296] 500 to 5000 nM

Indicate its recorded IC50; the molecule in question is Cc1cc(-c2cc(Cl)ccc2OCCn2c(C)nc3c(c2=O)C[C@H](N2CCCC[C@H]2C)CC3)c2scc(C(=O)O)c2n1 (single isomer, unassigned) [Compound 408] < 100 nM
